Values were extracted from PubChem BioAssay.

assay: antimalarial activity against Dd2 strain (AID 2302);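 also: 0% = DMSO untreated growth and 100% = chloroquine plus artemisinin killed control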; conditions: P. falciparum Dd2 in RBCs, LDH growth readout, 72 h; at 2 µM; active compounds read high
Record form. Attribute: growth inhibition. Fill in for each entry.
Numbers only, in %.

Below are 4 compounds. Give each one its growth inhibition.
1. O=C(NC1CCN(Cc2ccc3c(c2)OCCO3)CC1)c1ccc(-c2cccc(Cl)c2)s1
2. CC(C)(C)c1cc(CN2CCN(Cc3ccccc3)CC2)cc(C(C)(C)C)c1O
3. CC(=O)N1CCC(C(=O)Nc2ccc(-c3cccc(-c4nc5c(C)cccc5[nH]4)c3)cc2)CC1
4. CN1CCC(N2CCN(CCOc3cc(NC(=O)/C=C/c4ccccc4Cl)ccc3Br)CC2)CC1

[9, 0, 27, 99]

Need growth inhibition for each of these compounds.
1. OCC1CCN(Cc2ccc(-c3ccc(-c4nc5ccc(F)cc5[nH]4)s3)cc2)CC1
2. COc1cccc(-c2cccc(NC(=O)C3CCN(Cc4ccc(O)cc4)CC3)c2)c1

1: 98; 2: 97

###

molecular target: L-lactate dehydrogenase (Plasmodium falciparum (isolate CDC / Honduras)) (UniProt Q27743); assay: PfLDH activity inhibition – cell lysate, 3D7 strain, counter-screen for P. falciparum growth inhibition project (AID 2304);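 also: 0% = vehicle and 100% = reference inhibitor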; settings: P. falciparum 3D7 crude extract, LDH APAD/NBT absorbance; at 2 µM; active compounds read high
Sequence (Q27743 whole entry, looked up): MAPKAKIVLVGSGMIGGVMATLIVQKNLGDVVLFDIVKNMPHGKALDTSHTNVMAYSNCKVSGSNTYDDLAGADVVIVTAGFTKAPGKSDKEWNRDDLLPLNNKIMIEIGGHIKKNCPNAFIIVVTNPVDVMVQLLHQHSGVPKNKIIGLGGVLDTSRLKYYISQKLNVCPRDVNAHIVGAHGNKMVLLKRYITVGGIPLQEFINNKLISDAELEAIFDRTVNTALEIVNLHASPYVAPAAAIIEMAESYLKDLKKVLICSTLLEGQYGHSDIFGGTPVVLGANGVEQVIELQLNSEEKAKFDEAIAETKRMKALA
measurement label: inhibition (%)
Answers are plain numbers, in %.

Completed entries (count: 3):
compound	inhibition / %
CC(=NN=C(N)N)c1ccc2c(ccc3ccccc32)c1	8
CC(CN1CCN(C)CC1)C(=O)Nc1ccc(-c2cccc(-c3nc4ccc(C(F)(F)F)cc4[nH]3)c2)cc1 (centres undefined)	-6
CN1CCN(CCCN(Cc2ccc(-c3ccc(CNCCc4ccccc4)cc3)cc2)C(=O)c2cccs2)CC1	3

Your task in this section: give inhibition for each listed record.
1. O=C(Nc1ccccc1)N(Cc1ccccc1-c1cccc(CNC2CCCC2)c1)C1CCN(Cc2ccccc2)CC1
2. COc1ccc(-c2ccc(NC(=O)c3ccc(Cl)cc3)cc2)cc1CN1CCC(O)CC1

3
5

Dear reader, for each entry below, please note its inhibition.
1. Oc1ccc(C2CNCCc3c2cc(O)c(OCc2ccccc2)c3Cl)cc1 (centres undefined)
2. COc1ccc(-c2ccc(NC(=O)c3ccc(C#N)cc3)c(F)c2)cc1CN(C)CCN(C)C
3. COCCNCc1cccc(-c2ccc3nccc(Nc4cc(O)ccc4C)c3c2)c1
4. O=C(NC1CCN(Cc2cccc(C(F)(F)F)c2)CC1)c1ccc(-c2cccc(Cl)c2)s1

1. 5
2. -4
3. 4
4. -1

I need inhibition for every entry listed below, if you could help.
1. CCCc1nc2c(N3CC(NC(=O)/C=C/c4ccccc4)C3)cccc2n1C1CC1
2. CC1(C)CN2CCCC2c2cc(NC(=O)/C=C/c3ccccc3Cl)ccc21 (centres undefined)
3. Cc1ccc(Cn2ncc(N3C[C@@H](C)N[C@@H](C)C3)c(Cl)c2=O)cc1NC(=O)Nc1ccc(-c2ccccc2)cc1
4. CC(=O)c1sc(NC(=O)Nc2ccc(C)cc2C)nc1C
5. CCN(CCCN1CCCCC1)c1cc(C)nc(Nc2ccc(C)c(F)c2)n1
6. C=CCOC(=O)N1CCC(CNCc2cccc(-c3ccc(-c4nc5ccc(C(F)(F)F)cc5[nH]4)cc3)c2)C1 (centres undefined)
7. CSC1=NC(=Nc2c(C)cccc2C)C2(CCCCC2)N1c1ccccc1Cl
8. COCCCN=C(N)c1ccc(NC(=O)c2ccc(C(=O)Nc3ccc(C(N)=NCCCOC)cc3)cc2)cc1

[0, 0, -2, 0, -5, -3, -6, -2]

Dear colleague, could you send me inhibition for each of the items below? Thanks.
1. CC(C)c1ccc(NS(=O)(=O)c2cccc(C(=O)NC3CCN(CC4CCCCC4)CC3)c2)cc1
2. CC(=O)Nc1ccc(CN2CCC(CNC(=O)c3cc(-c4cccc(C(F)(F)F)c4)cs3)C2)cc1 (centres undefined)
3. N#Cc1ccc(-c2ccc(C(=O)NCCCCN3CCC(c4ccc5c(c4OCc4ccccn4)CCCC5)CC3)cc2)cc1
4. Cc1ccc(NC(=O)Nc2ccc(Br)cc2)cc1OCCN(C)C
5. Cc1ccc(NC(=O)c2cc(Br)cc(N3CCC(N(C)C)CC3)c2)cc1F

[0, 2, 6, -1, -3]

Please supply inhibition for each of the following items, keeping them in order.
1. COCCN(C)CCCOc1cc2c(cc1OC)ncn2-c1cc(OCc2ccccc2C(F)(F)F)c(C(N)=O)s1
2. NC(N)=Nc1nc(-c2cccc(NC(=O)NCc3ccc(OC(F)(F)F)cc3)c2)cs1
3. Cc1cc(-c2cccc3c(C(=O)N4CCc5cc6nccc(N7CCCN(C)CC7)c6cc54)cccc23)cc(C)n1
4. CS(=O)(=O)c1ccc(OCCCN(Cc2ccccc2C(F)(F)F)c2ccc(C#N)c(C(F)(F)F)c2)cc1

2
4
6
-5

Kindly give each listed record's inhibition.
1. O=C(CC1SC(N2N=C(c3cccs3)CC2c2ccccc2)=NC1=O)Nc1ccccc1F (centres undefined)
2. Cc1ccc(N2CCN(CCCCNC(=O)c3ccc(NC(=O)c4ccc(Cl)cc4)cc3)CC2)c(C)c1

1: -2; 2: 7

Let me know recorded inhibition for COc1cc(F)c2nccc([C@@H](O)CN3CCC(NCc4cc5c(cc4F)OCCO5)CC3)c2c1 , thanks. -1
